// data source = paper PMC5540273

tested on: PIK3CG; details: concentration: 1 μM, replicates: in singlicate; n = 1;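 also: KINOMEscan kinase panel screen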

- compound: "Cl.Cl.Cl.N#Cc1ccc(CCNc2nccc(-c3cccc(CN4CCNCC4)c3)n2)cc1"
  %Inh: "12%"
- compound: "CNCc1ccc2nc(NC(=O)c3ccc(C(C)(C)C)cc3)cn2c1"
  %Inh: "40%"
- compound: "Cc1ccc(-c2nc(Nc3ccncc3)c3ccccc3n2)s1"
  %Inh: "0%"
- compound: "COc1cc2ncnc(Nc3cccc(Br)c3)c2cc1OC.Cl"
  %Inh: "0%"
- compound: "CC(C)c1ccc(O)cc1Nc1ccnc2ccc(C(F)(F)F)cc12"
  %Inh: "0%"
- compound: "Cn1cncc1C(=O)NC1CCN(c2ccnc(Nc3ccc(F)cc3)n2)C1 (stereo not drawn)"
  %Inh: "0%"
- compound: "O=C1NC(=O)C(c2ccc(Cl)cc2)=C1Nc1cccc(Cl)c1"
  %Inh: "38%"
- compound: "COc1ccc(Nc2nccc(N3CCC(NC(=O)c4cc5ccccc5s4)C3)n2)cc1 (stereo not drawn)"
  %Inh: "0%"
- compound: "COC(=O)c1cccc(NC(=O)NC2CCN(c3ccnc(Nc4ccc(OC)cc4)n3)C2)c1 (stereo not drawn)"
  %Inh: "0%"
- compound: "Cc1ccc(NC(=O)Nc2ccccc2)cc1-c1ccc(C(=O)Nc2ccncc2)cc1"
  %Inh: "14%"
- compound: "Cc1cccc2c(-c3ccncn3)c(-c3ccc(F)cc3)nn12"
  %Inh: "0%"
- compound: "O=C1NC(=O)C(c2ccc(Cl)cc2)=C1Nc1ccc(O)cc1"
  %Inh: "17%"
- compound: "CS(=O)(=O)CCNCc1nc(-c2ccc3ncnc(Nc4ccc(OCc5ccccc5)c(Cl)c4)c3c2)cs1.Cl"
  %Inh: "0%"
- compound: "Cc1ccccc1-c1cc(-c2c[nH]nc2-c2ccccn2)ccn1"
  %Inh: "0%"
- compound: "Cc1ccc(NC(=O)Nc2ccc(Cl)c(C(F)(F)F)c2)cc1-c1ccc(C(=O)Nc2ccncc2)cc1"
  %Inh: "10%"
- compound: "COC(=O)c1cccc(NC(=O)NC2CCN(c3ccnc(Nc4ccc(F)cc4)n3)C2)c1 (stereo not drawn)"
  %Inh: "0%"
- compound: "Nc1nccc(-c2c(-c3ccc(F)cc3)ncn2C2CCN(Cc3ccccc3)CC2)n1"
  %Inh: "7%"
- compound: "O=C(Nc1n[nH]c2cc(-c3ccsc3)ccc12)C1CC1"
  %Inh: "6%"
